system: C33A; test: Primary qHTS to identify gynecologic anti-cancer compounds using libraries of approved drugs and bioactive compounds (AID 1345084); conditions: Gynecologic cancer cell panel viability, ATPlite luminescence, 48 h; series mostly up to 57.5 µM; note: % is set by controls: 0 for no effect and ±100 for the full control effect; nearly all actives have a fitted effect of over 55% in size
Results filed as inconclusive are left out. Calls of active or inactive are those of the source. Calls come from the whole dose curve; as a rule, active = well fitted cell-killing curve with a large enough effect; inconclusive = small, poorly fitted or top-dose-only effect, or effect the other way; inactive = flat fitted curve, though single readings scatter.
measurement.name: activity change, negative = cytotoxicity

1) C=C1CC[C@@]2(OC1)O[C@H]1CC3C4CC=C5C[C@@H](O[C@@H]6O[C@@H](C)[C@H](O)[C@@H](O)[C@H]6O)C[C@@H](O[C@@H]6O[C@H](C)[C@H](O)[C@H](O)[C@H]6O[C@@H]6O[C@@H](C)[C@H](O)[C@@H](O)[C@H]6O)[C@]5(C)C4CC[C@]3(C)[C@H]1[C@@H]2C (stereo partly drawn): 1.56% [at 11.6 µM] (inactive)
2) COc1ccc(CC(NC(C)=O)C(=O)O)cc1 (stereo not drawn): inactive
3) CC(=O)OC1C(C)C2C(OC3OC(CO)C(O)C(O)C3O)OC=C(C(=O)O)C2C1OC(=O)c1ccccc1 (stereo not drawn): inactive

* * *

tested on: HEK293; assay: Cytotoxic Profiling of Annotated Libraries Using Quantitative High-Throughput Screening (AID 1296008); details: Five cell lines viability, CellTiter-Glo ATP luminescence, 48-72 h; hits give low values; note: % is set by controls: 0 for no effect and ±100 for the full control effect; nearly all actives have a fitted effect of over 60% in size
Records with an inconclusive call do not appear.
# max response values compiled below
measurement.name: max response (%)

1) CC(C)(O)C(O)C(=O)OCc1ccc(O[C@@H]2O[C@H](CO)[C@@H](O)[C@H](O)[C@H]2O)cc1 (stereo partly specified): 2.94
2) C/C=C1/[C@H](O[C@@H]2O[C@H](CO)[C@@H](O)[C@H](O)[C@H]2O)OC=C(C(=O)OC)[C@H]1CC(=O)OCCc1ccc(O)c(O)c1: -8.69
3) O=C(/C=C/c1ccc(O)c(O)c1)OC[C@H]1O[C@@H](OC2CCCCC2O)[C@H](O)[C@@H](O)[C@@H]1O (stereo partly specified): -0.405
4) COc1ccc(-c2ccn(CC[C@](C)(C(=O)NO)S(C)(=O)=O)c(=O)c2)c(F)c1: -10.7
5) O=C(O)Cn1nnc(-c2ccc(CN(CCCCOc3ccc(CN4CCCC4)cc3)CCc3ccccc3)cc2)n1: -0.898
6) COc1cncc(C#Cc2ccccn2)c1: 2.17
7) CC(=O)c1ccc(O[C@@H]2O[C@H](CO[C@@H]3OC[C@@H](O)[C@H](O)[C@H]3O)[C@@H](O)[C@H](O)[C@H]2O)cc1: -1.26
8) O=C(OC1C=C(CO)C2C(OC3OC(CO)C(O)C(O)C3O)OC=CC12O)c1ccc(O)cc1 (stereo unspecified): -1.34
9) C[C@@H]1C[C@H]2OC(=O)[C@@]3(C)CCC[C@](C)(C23)[C@@]1(O)CCC1=CC(=O)OC1O (stereo partly specified): -8.41
10) C=C1CC23CC1CCC2C12OC(=O)C(C)(C(O)CC1O)C2C3C(=O)O (stereo unspecified): -15.6
11) O=C(N[C@H](Cc1ccccc1)C(=O)O)c1sc2cc(F)ccc2c1Cl: -2.83
12) COC(=O)c1ccc(OC)cc1O[C@@H]1O[C@H](CO[C@@H]2OC[C@@H](O)[C@H](O)[C@H]2O)[C@@H](O)[C@H](O)[C@H]1O: -1.51
13) COc1c2c(c(C)c3c1C(=O)OC3)OC1(C)CC(O)C34OC(OC)(CCC3(C)C1C2)OC4(C)CO (stereo unspecified): -8.39
14) C[C@H](/C=C/[C@@]1(O)[C@H](C)CC(=O)CC1(C)C)O[C@@H]1O[C@H](CO[C@@H]2OC[C@@H](O)[C@H](O)[C@H]2O)[C@@H](O)[C@H](O)[C@H]1O: -7.74
15) CCC(C)C(=O)O[C@H]1C[C@](C)(O)[C@]23OC(C)(C)[C@H](C[C@H](OC(=O)c4ccccc4)[C@]2(COC(C)=O)[C@H]1OC(=O)C(C)CC)[C@H]3OC(C)=O (stereo partly specified): -12.8
16) C/C=C(/C)C(=O)O[C@@H]1C[C@@H](OC(=O)/C(C)=C\C)[C@@]2(C)C3C(=O)C=C(C)C2C3C1(C)C: -8.78

* * *

# max response values compiled below
test system: HaCat; test: Cytotoxic Profiling of Annotated Libraries Using Quantitative High-Throughput Screening (AID 1296008); details: Five cell lines viability, CellTiter-Glo ATP luminescence, 48-72 h; hits give low values; note: % is set by controls: 0 for no effect and ±100 for the full control effect; nearly all actives have a fitted effect of over 60% in size
Records with an inconclusive call do not appear.
measurement.name: max response (%)

1. CC(C)=C1CC2C(CCC2(C)O)C(C)(O)CC1=O (stereo not given): -16.7
2. O=C(O)CC1(O)C(=O)Nc2ccccc21 (stereo not given): -2.76
3. CC1CCC23COC(=O)C2=CC(O)CC3C1(C)CCc1ccoc1 (stereo not given): -3.63
4. CC(C)C1CCC(CO)=CC1/C=C(\CO)C(=O)OCC1(O)CCC(C(C)C)C2C=C(C(=O)O)COC(=O)C21 (stereo not given): -2.47
5. O=C(C[C@@H]1C(C(=O)O)=CO[C@@H](O[C@@H]2O[C@H](CO)[C@@H](O)[C@H](O)[C@H]2O)/C1=C\CO)OCCc1ccc(O)cc1: -0.66

* * *

system: HEK293T; experiment: qHTS assay to identify novel small-molecules to repurpose for Merkel cell carcinoma treatment (AID 1296009); details: MCC and control cell lines, CellTiter-Glo viability, 72 h; at 44.8 µM (top of the series) unless noted; note: nearly all actives have a fitted effect of over 60% in size
Records with an inconclusive call do not appear. Active and inactive are the calls of the source. Calls come from the whole dose curve; as a rule, active = well fitted inhibition curve with a large enough effect; inconclusive = small, poorly fitted or top-dose-only effect; inactive = flat fitted curve, though single readings scatter.
measurement.name: outcome

1. COc1cc(C(CO)CO[C@@H]2O[C@H](CO)[C@@H](O)[C@H](O)[C@H]2O)ccc1O (stereo partly drawn): inactive
2. CC1(C)C=Cc2c(ccc3c2N=C2C(C)(C)[C@@H]4C[C@]56CCCN5C(=O)[C@@]4(C[C@]23O)NC6=O)O1: inactive [at 17.4 µM]
3. CC(CCc1ccc(O)cc1)O[C@@H]1O[C@H](CO[C@@H]2OC(CO)[C@H](O)[C@H]2O)[C@@H](O)[C@H](O)[C@H]1O (stereo partly drawn): inactive [at 17.4 µM]
4. O=C(O[C@@H]1O[C@H](CO)[C@@H](O)[C@H](O)[C@H]1O)c1ccccc1: inactive
5. C=C[C@H]1[C@H](O[C@@H]2O[C@H](CO)[C@@H](O)[C@H](O)[C@H]2O)OC=C2C(=O)N3Cc4c([nH]c5ccccc5c4=O)[C@@H]3C[C@H]21: inactive [at 17.4 µM]
6. CSCC1OC(n2cnc3c(N)ncnc32)C(O)C1O (stereo not drawn): inactive
7. COc1cc(/C=C/C(=O)O[C@@H]2O[C@H](CO)[C@@H](O)[C@H](O)[C@H]2O)ccc1O: inactive
8. CC(C)C1(O)NC(=O)C(CC2(O)c3ccccc3N3C(=O)C(C)(C)NC32)n2c1nc1ccccc1c2=O (stereo not drawn): inactive [at 17.4 µM]

* * *

tested on: Es-2; experiment: Primary qHTS to identify gynecologic anti-cancer compounds using libraries of approved drugs and bioactive compounds (AID 1345084); details: Gynecologic cancer cell panel viability, ATPlite luminescence, 48 h; series mostly up to 57.5 µM; note: % is set by controls: 0 for no effect and ±100 for the full control effect; nearly all actives have a fitted effect of over 55% in size
Results filed as inconclusive are left out. The source made the active and inactive calls. Calls follow the shape of the dose curve; as a rule, active = well fitted cell-killing curve with a large enough effect; inconclusive = small, poorly fitted or top-dose-only effect, or effect the other way; inactive = flat fitted curve, though single readings scatter.
measurement.name: activity change, negative = cytotoxicity

1) C[C@@H](c1ccccc1)N(C(N)=NC#N)c1cccc2ncccc12: inactive
2) C=C1C(OC(C)=O)CCC2(C)CC3(O)OC(=O)C(C)=C3CC12 (centres undefined): inactive
3) O=C(/C=C/c1ccc(O)cc1)OC[C@H]1O[C@@H](O/C(=C\c2ccccc2)C(=O)O)[C@H](O)[C@@H](O)[C@@H]1O: inactive
4) CC1(C)CC[C@]2(C(=O)O[C@@H]3O[C@H](CO)[C@@H](O)[C@H](O)[C@H]3O)CC[C@]3(C)C(=CCC4[C@@]5(C)CC[C@H](O[C@@H]6O[C@H](C(=O)O)[C@@H](O)[C@H](O)[C@H]6OC6OC(CO)C(O)C(O)C6O)C(C)(C)C5CC[C@]43C)[C@@H]2C1 (some centres undefined): 5.59% [at 11.6 µM] (inactive)

* * *

# max response values compiled below
Test system: HEK293
Assay: Cytotoxic Profiling of Annotated Libraries Using Quantitative High-Throughput Screening (AID 1296008); note: % is set by controls: 0 for no effect and ±100 for the full control effect; nearly all actives have a fitted effect of over 60% in size
Conditions: Five cell lines viability, CellTiter-Glo ATP luminescence, 48-72 h; hits give low values
Experimental: Cell-based phenotypic screening is a commonly used approach to discover biological pathways, novel drug targets, chemical probes and high-quality hit-to-lead molecules. […] A pintool (Kalypsys) was used to transfer 23 nL of compound solution to the 1536-well assay plates. […] Plates were left at room temperature for 10 min before imaging the ATP-coupled luminescence using a ViewLux microplate imager (PerkinElmer, Waltham, MA).
Inconclusive results are not listed. Calls of active or inactive are those of the source. Calls come from the whole dose curve; as a rule, active = well fitted inhibition curve with a large enough effect; inconclusive = small, poorly fitted or top-dose-only effect; inactive = flat fitted curve, though single readings scatter.
measurement.name: max response

1. Cc1oc(S(=O)(=O)N2CCCCC2)cc1NC(=O)Nc1ccccc1: -1.71% (inactive)
2. COC(=O)[C@]1(Cc2ccc(O)c(CC=C(C)C)c2)OC(=O)C(O)=C1c1ccc(O)cc1: 3.25% (inactive)
3. CC(=O)O[C@H]1C[C@@H](O)C(C)(C)C2C[C@@H](OC(C)=O)[C@]3(C)C(CC[C@@]4(C)[C@H](c5ccoc5)OC(=O)[C@H]5O[C@]543)[C@]21C (stereo not given in full): -3.17% (inactive)
4. CC1CCC2C(C)(C)[C@H](O)CC[C@]2(C)C12Cc1c(O)cc3c(c1O2)CN(C(CCC(=O)O)C(=O)O)C3=O (stereo not given in full): 0.0488% (inactive)
5. CC(=O)OC1(C)CC(O)C2(O)C=COC(OC3OC(CO)C(O)C(O)C3O)C12 (stereo not given): 4.36% (inactive)
6. CC(C)(CC(=O)N1CCCC1)NCC(=O)N1C[C@@H](F)C[C@H]1C#N: -0.937% (inactive)
7. CN(C)CC(c1ccc(O)cc1)C1(O)CCCCC1 (stereo not given): 2.78% (inactive)
8. C=CC(C)(CC/C=C(\C)C(=O)OC[C@H]1O[C@@H](OC(C)(C=C)CC/C=C(\C)C(=O)O[C@H]2[C@H](O)[C@@H](O)[C@H](OC(C)(C=C)CC/C=C(\C)C(=O)O)O[C@@H]2CO)[C@H](O)[C@@H](O)[C@@H]1O)O[C@@H]1O[C@H](CO)[C@@H](O)[C@H](O)[C@H]1O (stereo not given in full): -7.01% (inactive)
9. COc1cc(Nc2nc3ccccc3nc2NS(=O)(=O)c2cccc(NC(=O)c3ccc(C)c(OC)c3)c2)cc(OC)c1: -14.5% (inactive)
10. C=C1[C@H](OC(C)=O)[C@H]2[C@@H](OC(C)=O)C(C)C[C@]2(OC(C)=O)C(=O)[C@H](C)/C=C/C(C)(C)C(=O)[C@H](OC(=O)C(C)C)[C@H]1OC(C)=O (stereo not given in full): -3.57% (inactive)
11. CC(=O)OCC1OC(O[C@H]2CC[C@@]3(C)C(CC[C@]4(C)C3CC=C3[C@@H]5CC(C)(C)CC[C@]5(C(=O)O)CC[C@]34C)[C@]2(C)CO)C(O)C(O)C1OC1OC(C)C(O)C(OC2OCC(O)C(O)C2O)C1O (stereo not given in full): -5.43% (inactive)
12. COc1cc(-c2ccc(O)cc2)c(OC)c(O)c1C1=CC(=O)OC1CC(=O)O (stereo not given): 1.87% (inactive)
13. COC(=O)/C=C/c1ccc(O[C@@H]2O[C@H](CO)[C@@H](O)[C@H](O)[C@H]2O)cc1: -5.47% (inactive)
14. COc1ccnc(CCc2nc3ncccc3[nH]2)c1: -80.6% (inactive)
15. N#Cc1cccc(-c2c[nH]c3ncnc(N4CCOCC4)c23)c1: -6.95% (inactive)
